src = ChEMBL document CHEMBL3885861

- Species: Rattus norvegicus
- assay_comment: Open TG-GATES - Regimen: Single
- Format: toxicity, organism-based, Sprague-Dawley
- Parameters: regimen Single, gender Male, age 6 weeks
- run_parameters: in vivo, po, 100 mg/kg, 6 h, tissue Blood, route gavage, dose level Low
measured_attribute: Mono (%)

INSERT INTO results (smiles_entry, observed_value) VALUES
  ('Cc1nnc2n1-c1ccc(Cl)cc1C(c1ccccc1Cl)=NC2', 2.2),
  ('CNC(=C[N+](=O)[O-])NCCSCc1ccc(CN(C)C)o1', 2.2),
  ('COC(=O)C1=C(C)NC(C)=C(C(=O)OC)C1c1ccccc1[N+](=O)[O-]', 3.6);

----------
- Species on record: Rattus norvegicus
- assay_comment: Open TG-GATES - Regimen: Single
- Type: toxicity, organism-based, Sprague-Dawley
- Design: regimen Single, gender Male, age 6 weeks
- run_parameters: in vivo, po, 0 mg/kg, 3 h, tissue Blood, route gavage, dose level Control
measured_attribute: RBC (x10_4/ul)

INSERT INTO measurements (compound, observed_value) VALUES
  ('Brc1ccccc1 [BROMOBENZENE]', 618.4),
  ('Cc1nnc2n1-c1ccc(Cl)cc1C(c1ccccc1Cl)=NC2 [TRIAZOLAM]', 640.6),
  ('CCOc1ccc(NC(C)=O)cc1 [PHENACETIN]', 641.4),
  ('CS(=O)(=O)O.Cc1ccc(NC(=O)c2ccc(CN3CCN(C)CC3)cc2)cc1Nc1nccc(-c2cccnc2)n1 [IMATINIB MESYLATE]', 606.4),
  ('CN1C(=O)CCS(=O)(=O)C1c1ccc(Cl)cc1 (stereo unspecified) [CHLORMEZANONE]', 629.8),
  ('CNC(=C[N+](=O)[O-])NCCSCc1ccc(CN(C)C)o1 [RANITIDINE]', 632.2);

----------
Na for assorted compounds
- Organism: Rattus norvegicus
- assay_comment: Open TG-GATES - Regimen: Single
- Type: toxicity, organism-based, Sprague-Dawley
- Parameters: regimen Single, gender Male, age 6 weeks
- run_parameters: in vivo, po, 300 mg/kg, 9 h, tissue Plasma, route gavage, dose level Middle
measured_attribute: Na (meq/L)

INSERT INTO assay_data (smiles_entry, measured_attribute, observed_value) VALUES
  ('COC(=O)C1=C(C)NC(C)=C(C(=O)OC)C1c1ccccc1[N+](=O)[O-]', 'Na', 137.4),
  ('O=C(OC[C@H]1O[C@@H](OC(=O)c2cc(O)c(O)c(OC(=O)c3cc(O)c(O)c(O)c3)c2)[C@H](OC(=O)c2cc(O)c(O)c(OC(=O)c3cc(O)c(O)c(O)c3)c2)[C@@H](OC(=O)c2cc(O)c(O)c(OC(=O)c3cc(O)c(O)c(O)c3)c2)[C@@H]1OC(=O)c1cc(O)c(O)c(OC(=O)c2cc(O)c(O)c(O)c2)c1)c1cc(O)c(O)c(OC(=O)c2cc(O)c(O)c(O)c2)c1', 'Na', 137.2),
  ('CN/C(=N/CCSCc1nc[nH]c1C)NC#N', 'Na', 141),
  ('Cc1nnc2n1-c1ccc(Cl)cc1C(c1ccccc1Cl)=NC2', 'Na', 141.2),
  ('CNC(=C[N+](=O)[O-])NCCSCc1ccc(CN(C)C)o1', 'Na', 141.6);

----------
- Species: Rattus norvegicus
- assay_comment: Open TG-GATES - Regimen: Daily Repeat
- Type: toxicity, organism-based, Sprague-Dawley
- Design: regimen Daily Repeat, gender Male, age 6 weeks
- run_parameters: in vivo, po, 0 mg/kg, 72 h, tissue Plasma, route gavage, dose level Control, time 3 day
TG for assorted compounds
measured_attribute: TG (mg/dL)

INSERT INTO results (compound, measured_attribute, unit_of_measurement, observed_value) VALUES
  ('Nc1c2c(nc3ccccc13)CCCC2 [TACRINE]', 'TG', 'mg/dL', 132.8),
  ('Cc1nnc2n1-c1ccc(Cl)cc1C(c1ccccc1Cl)=NC2 [TRIAZOLAM]', 'TG', 'mg/dL', 126),
  ('CCCc1cc(=O)[nH]c(=S)[nH]1 [PROPYLTHIOURACIL]', 'TG', 'mg/dL', 98.8),
  ('COC(=O)C1=C(C)NC(C)=C(C(=O)OC)C1c1ccccc1[N+](=O)[O-] [NIFEDIPINE]', 'TG', 'mg/dL', 109.2),
  ('CC(C)NNC(=O)c1ccncc1 [IPRONIAZID]', 'TG', 'mg/dL', 100.4);

----------
KIDNEY_L for assorted molecules
- Organism: Rattus norvegicus
- assay_comment: Open TG-GATES - Regimen: Single
- Type: toxicity, organism-based, Sprague-Dawley
- Design: regimen Single, gender Male, age 6 weeks
- run_parameters: in vivo, po, 100 mg/kg, 3 h, tissue Kidney, route gavage, dose level Low
measured_attribute: KIDNEY_L

INSERT INTO measurements (smiles_entry, measured_attribute, observed_value) VALUES
  ('Cc1nnc2n1-c1ccc(Cl)cc1C(c1ccccc1Cl)=NC2', 'KIDNEY_L', '0.9 g'),
  ('COC(=O)C1=C(C)NC(C)=C(C(=O)OC)C1c1ccccc1[N+](=O)[O-]', 'KIDNEY_L', '0.9 g'),
  ('O=C(OC[C@H]1O[C@@H](OC(=O)c2cc(O)c(O)c(OC(=O)c3cc(O)c(O)c(O)c3)c2)[C@H](OC(=O)c2cc(O)c(O)c(OC(=O)c3cc(O)c(O)c(O)c3)c2)[C@@H](OC(=O)c2cc(O)c(O)c(OC(=O)c3cc(O)c(O)c(O)c3)c2)[C@@H]1OC(=O)c1cc(O)c(O)c(OC(=O)c2cc(O)c(O)c(O)c2)c1)c1cc(O)c(O)c(OC(=O)c2cc(O)c(O)c(O)c2)c1', 'KIDNEY_L', '0.9 g'),
  ('CNC(=C[N+](=O)[O-])NCCSCc1ccc(CN(C)C)o1', 'KIDNEY_L', '1 g'),
  ('CN/C(=N/CCSCc1nc[nH]c1C)NC#N', 'KIDNEY_L', '1 g');

----------
- Species: Rattus norvegicus
- assay_comment: Open TG-GATES - Regimen: Single
- Assay type: toxicity, organism-based, Sprague-Dawley
- Parameters: regimen Single, gender Male, age 6 weeks
- run_parameters: in vivo, po, 0 mg/kg, 24 h, tissue Plasma, route gavage, dose level Control
LDH for assorted molecules
measured_attribute: LDH (IU/L)

INSERT INTO measurements (molecule, observed_value) VALUES
  ('Cc1nnc2n1-c1ccc(Cl)cc1C(c1ccccc1Cl)=NC2', 109.8),
  ('O=C(OC[C@H]1O[C@@H](OC(=O)c2cc(O)c(O)c(OC(=O)c3cc(O)c(O)c(O)c3)c2)[C@H](OC(=O)c2cc(O)c(O)c(OC(=O)c3cc(O)c(O)c(O)c3)c2)[C@@H](OC(=O)c2cc(O)c(O)c(OC(=O)c3cc(O)c(O)c(O)c3)c2)[C@@H]1OC(=O)c1cc(O)c(O)c(OC(=O)c2cc(O)c(O)c(O)c2)c1)c1cc(O)c(O)c(OC(=O)c2cc(O)c(O)c(O)c2)c1', 97),
  ('CN(C)CCC(c1ccc(Cl)cc1)c1ccccn1 (centres undefined)', 94.4),
  ('CN/C(=N/CCSCc1nc[nH]c1C)NC#N', 147.6);

----------
- Species: Rattus norvegicus
- assay_comment: Open TG-GATES - Regimen: Single
- Type: toxicity, organism-based, Sprague-Dawley
- Parameters: regimen Single, gender Male, age 6 weeks
- run_parameters: in vivo, po, 1000 mg/kg, 24 h, tissue Blood, route gavage, dose level High
Hb for assorted compounds
measured_attribute: Hb (g/dL)

INSERT INTO results (smiles_entry, unit_of_measurement, observed_value) VALUES
  ('COC(=O)C1=C(C)NC(C)=C(C(=O)OC)C1c1ccccc1[N+](=O)[O-]', 'g/dL', 13.1),
  ('Cc1nnc2n1-c1ccc(Cl)cc1C(c1ccccc1Cl)=NC2', 'g/dL', 13.9),
  ('CNC(=C[N+](=O)[O-])NCCSCc1ccc(CN(C)C)o1', 'g/dL', 13.9),
  ('CN/C(=N/CCSCc1nc[nH]c1C)NC#N', 'g/dL', 13.1),
  ('O=C(OC[C@H]1O[C@@H](OC(=O)c2cc(O)c(O)c(OC(=O)c3cc(O)c(O)c(O)c3)c2)[C@H](OC(=O)c2cc(O)c(O)c(OC(=O)c3cc(O)c(O)c(O)c3)c2)[C@@H](OC(=O)c2cc(O)c(O)c(OC(=O)c3cc(O)c(O)c(O)c3)c2)[C@@H]1OC(=O)c1cc(O)c(O)c(OC(=O)c2cc(O)c(O)c(O)c2)c1)c1cc(O)c(O)c(OC(=O)c2cc(O)c(O)c(O)c2)c1', 'g/dL', 12.6);

----------
IP for assorted compounds
- Species: Rattus norvegicus
- assay_comment: Open TG-GATES - Regimen: Single
- Type: toxicity, organism-based, Sprague-Dawley
- Set-up: regimen Single, gender Male, age 6 weeks
- run_parameters: in vivo, po, 100 mg/kg, 6 h, tissue Plasma, route gavage, dose level Low
measured_attribute: IP (mg/dL)

INSERT INTO results (compound, observed_value) VALUES
  ('CNC(=C[N+](=O)[O-])NCCSCc1ccc(CN(C)C)o1 [RANITIDINE]', 8.6),
  ('COC(=O)C1=C(C)NC(C)=C(C(=O)OC)C1c1ccccc1[N+](=O)[O-] [NIFEDIPINE]', 10.7),
  ('Cc1nnc2n1-c1ccc(Cl)cc1C(c1ccccc1Cl)=NC2 [TRIAZOLAM]', 10.5),
  ('CN/C(=N/CCSCc1nc[nH]c1C)NC#N [CIMETIDINE]', 9.6),
  ('O=C(OC[C@H]1O[C@@H](OC(=O)c2cc(O)c(O)c(OC(=O)c3cc(O)c(O)c(O)c3)c2)[C@H](OC(=O)c2cc(O)c(O)c(OC(=O)c3cc(O)c(O)c(O)c3)c2)[C@@H](OC(=O)c2cc(O)c(O)c(OC(=O)c3cc(O)c(O)c(O)c3)c2)[C@@H]1OC(=O)c1cc(O)c(O)c(OC(=O)c2cc(O)c(O)c(O)c2)c1)c1cc(O)c(O)c(OC(=O)c2cc(O)c(O)c(O)c2)c1 [TANNIC ACID]', 10.4);
